# TARGET_OR_SYSTEM: Integrin alpha-V/beta-3 (Homo sapiens, UniProt P05106+P06756)
# Sequence (P05106 27-788 limits assumed): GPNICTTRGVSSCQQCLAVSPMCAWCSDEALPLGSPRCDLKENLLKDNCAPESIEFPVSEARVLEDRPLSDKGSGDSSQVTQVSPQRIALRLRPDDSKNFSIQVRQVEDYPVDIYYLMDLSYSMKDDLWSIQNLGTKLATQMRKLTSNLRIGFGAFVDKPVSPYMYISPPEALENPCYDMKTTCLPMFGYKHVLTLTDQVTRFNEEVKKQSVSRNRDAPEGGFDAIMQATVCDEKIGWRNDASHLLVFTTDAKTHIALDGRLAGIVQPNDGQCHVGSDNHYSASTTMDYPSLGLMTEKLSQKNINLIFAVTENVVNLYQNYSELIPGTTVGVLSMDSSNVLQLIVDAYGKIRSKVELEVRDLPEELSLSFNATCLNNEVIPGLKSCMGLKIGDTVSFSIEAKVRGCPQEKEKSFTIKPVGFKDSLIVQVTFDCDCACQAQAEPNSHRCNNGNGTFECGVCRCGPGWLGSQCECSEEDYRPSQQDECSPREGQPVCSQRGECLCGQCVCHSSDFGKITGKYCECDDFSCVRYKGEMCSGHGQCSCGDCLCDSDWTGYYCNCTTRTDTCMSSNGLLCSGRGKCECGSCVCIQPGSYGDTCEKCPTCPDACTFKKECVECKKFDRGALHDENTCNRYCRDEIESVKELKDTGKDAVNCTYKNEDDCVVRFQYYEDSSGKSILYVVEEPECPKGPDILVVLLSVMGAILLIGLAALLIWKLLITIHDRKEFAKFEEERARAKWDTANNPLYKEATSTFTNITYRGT
# Sequence (P06756 31-889 limits assumed): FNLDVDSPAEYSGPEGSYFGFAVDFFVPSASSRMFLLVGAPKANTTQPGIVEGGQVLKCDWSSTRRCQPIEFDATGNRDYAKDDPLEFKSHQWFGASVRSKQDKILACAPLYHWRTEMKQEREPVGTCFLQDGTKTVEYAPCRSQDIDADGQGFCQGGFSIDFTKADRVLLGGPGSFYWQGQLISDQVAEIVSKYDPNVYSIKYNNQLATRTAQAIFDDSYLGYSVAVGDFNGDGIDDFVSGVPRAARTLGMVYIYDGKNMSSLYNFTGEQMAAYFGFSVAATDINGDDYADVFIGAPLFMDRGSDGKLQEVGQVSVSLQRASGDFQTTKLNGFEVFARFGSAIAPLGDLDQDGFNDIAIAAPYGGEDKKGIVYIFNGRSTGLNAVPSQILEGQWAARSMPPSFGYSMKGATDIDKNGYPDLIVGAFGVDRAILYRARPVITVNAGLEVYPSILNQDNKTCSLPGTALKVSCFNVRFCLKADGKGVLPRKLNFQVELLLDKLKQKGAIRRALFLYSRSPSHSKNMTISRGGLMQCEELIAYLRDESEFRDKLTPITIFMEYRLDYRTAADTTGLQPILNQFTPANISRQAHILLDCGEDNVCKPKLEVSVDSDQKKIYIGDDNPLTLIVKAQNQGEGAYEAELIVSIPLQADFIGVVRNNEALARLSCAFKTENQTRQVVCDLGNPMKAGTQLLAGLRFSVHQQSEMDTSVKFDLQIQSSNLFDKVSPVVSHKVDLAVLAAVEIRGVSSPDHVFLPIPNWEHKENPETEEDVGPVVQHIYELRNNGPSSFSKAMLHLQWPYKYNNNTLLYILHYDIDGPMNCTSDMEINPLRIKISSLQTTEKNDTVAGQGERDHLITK
# Sequence (P06756 891-1048 limits assumed): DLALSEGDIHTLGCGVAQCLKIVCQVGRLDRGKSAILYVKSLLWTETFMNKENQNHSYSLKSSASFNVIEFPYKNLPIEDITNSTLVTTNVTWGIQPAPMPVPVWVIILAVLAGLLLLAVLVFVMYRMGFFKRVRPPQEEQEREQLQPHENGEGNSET
# ASSAY_SUMMARY: In vitro inhibition of human alphaV-beta3 integrin binding in ELISA
pIC50: −log10 of the molar value.
METRIC_NAME: pIC50

LINE_NOTATION	DATA_VALUE
CNc1cccc(CCOc2ccc3c(ccn3CCC(=O)O)c2)n1	7.31
O=C(O)CCn1ccc2cc(OCCCNc3ccccn3)ccc21	6.33
CNc1cccc(CCOc2ccc3c(CCC(=O)O)coc3c2)n1	7.48
CNc1cccc(CCOc2ccc3c(CCC(=O)O)csc3c2)n1	7.52

###

# ASSAY_SUMMARY: Apparent volume of distribution during the terminal phase was determined in mouse upon 5 mpk intravenous administration
# Assay type: ADME, organism-based
# EXPERIMENTAL_CONTEXT: in vivo, 5 mg/kg, read-out: Vz
// reported Vd for each item listed

LINE_NOTATION	UNIT	Vd
CNc1cccc(CCOc2ccc3c(CCC(=O)O)coc3c2)n1	L/kg	0.5
CNc1cccc(CCOc2ccc3c(CCC(=O)O)csc3c2)n1	L/kg	1.05
CNc1cccc(CCOc2ccc3c(ccn3CCC(=O)O)c2)n1	L/kg	1.58

###

# ASSAY_SUMMARY: Area under curve for the compound was determined at infinity in mouse upon 50 mpk peroral administration
# Assay type: ADME
# EXPERIMENTAL_CONTEXT: in vivo, po, 50 mg/kg
METRIC_NAME: AUC inf (ng·h/mL)

LINE_NOTATION	UNIT	DATA_VALUE
CNc1cccc(CCOc2ccc3c(CCC(=O)O)coc3c2)n1	ng·h/mL	14600
CNc1cccc(CCOc2ccc3c(CCC(=O)O)csc3c2)n1	ng·h/mL	36700
CNc1cccc(CCOc2ccc3c(ccn3CCC(=O)O)c2)n1	ng·h/mL	64000

###

# TARGET_OR_SYSTEM: Integrin alpha-IIb/beta-3 (Homo sapiens, UniProt P05106+P08514)
# Sequence (P05106 27-788 limits assumed): as the sequence (P05106 27-788 limits assumed) above
# Sequence (P08514 32-887 limits assumed): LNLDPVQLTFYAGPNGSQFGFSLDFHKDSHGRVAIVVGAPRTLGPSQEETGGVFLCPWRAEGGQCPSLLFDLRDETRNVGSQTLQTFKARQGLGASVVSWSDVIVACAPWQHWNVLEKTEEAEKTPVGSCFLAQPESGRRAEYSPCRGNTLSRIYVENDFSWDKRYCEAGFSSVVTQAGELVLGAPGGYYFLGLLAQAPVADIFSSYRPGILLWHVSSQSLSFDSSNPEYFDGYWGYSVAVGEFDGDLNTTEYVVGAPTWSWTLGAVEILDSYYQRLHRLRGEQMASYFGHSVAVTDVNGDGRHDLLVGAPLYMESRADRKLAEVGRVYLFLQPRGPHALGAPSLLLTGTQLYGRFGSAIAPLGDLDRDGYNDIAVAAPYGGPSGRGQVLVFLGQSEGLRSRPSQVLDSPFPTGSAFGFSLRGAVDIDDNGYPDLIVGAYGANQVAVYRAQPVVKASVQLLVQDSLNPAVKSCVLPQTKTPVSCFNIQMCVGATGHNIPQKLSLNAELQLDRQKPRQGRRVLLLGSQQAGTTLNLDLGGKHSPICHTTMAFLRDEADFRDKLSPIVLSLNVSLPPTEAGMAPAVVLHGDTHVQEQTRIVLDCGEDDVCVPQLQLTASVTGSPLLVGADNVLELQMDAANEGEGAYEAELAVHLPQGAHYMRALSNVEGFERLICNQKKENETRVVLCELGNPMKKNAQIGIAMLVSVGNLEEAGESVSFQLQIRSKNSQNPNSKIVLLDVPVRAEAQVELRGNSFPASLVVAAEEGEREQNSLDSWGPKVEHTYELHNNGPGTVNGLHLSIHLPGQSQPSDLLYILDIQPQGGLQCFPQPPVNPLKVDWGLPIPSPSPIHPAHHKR
# Sequence (P08514 891-1039 limits assumed): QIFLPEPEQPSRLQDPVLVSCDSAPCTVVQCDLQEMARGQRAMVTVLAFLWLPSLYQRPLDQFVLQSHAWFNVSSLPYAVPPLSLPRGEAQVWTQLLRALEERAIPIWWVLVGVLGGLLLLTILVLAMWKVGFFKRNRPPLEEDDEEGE
# ASSAY_SUMMARY: In vitro inhibition of human alphaIIb betaIIIa integrin binding in ELISA

LINE_NOTATION	TARGET_OR_SYSTEM	IC50
O=C(O)CCn1ccc2cc(OCCCNc3ccccn3)ccc21	Integrin alpha-IIb/beta-3 (Homo sapiens, UniProt P05106+P08514)	> 20 µM
CNc1cccc(CCOc2ccc3c(ccn3CCC(=O)O)c2)n1	Integrin alpha-IIb/beta-3 (Homo sapiens, UniProt P05106+P08514)	> 20 µM
CNc1cccc(CCOc2ccc3c(CCC(=O)O)csc3c2)n1	Integrin alpha-IIb/beta-3 (Homo sapiens, UniProt P05106+P08514)	> 20 µM
CNc1cccc(CCOc2ccc3c(CCC(=O)O)coc3c2)n1	Integrin alpha-IIb/beta-3 (Homo sapiens, UniProt P05106+P08514)	> 20 µM

###

# ASSAY_SUMMARY: Mean residence time for the compound was determined in mouse upon 5 mpk intravenous administration
# Format: ADME, organism-based
# EXPERIMENTAL_CONTEXT: in vivo, 5 mg/kg

LINE_NOTATION	UNIT	MRT
CNc1cccc(CCOc2ccc3c(ccn3CCC(=O)O)c2)n1	min	103
CNc1cccc(CCOc2ccc3c(CCC(=O)O)coc3c2)n1	min	6.6
CNc1cccc(CCOc2ccc3c(CCC(=O)O)csc3c2)n1	min	33.6

###

# ASSAY_SUMMARY: Maximum clearance in mouse upon 5 mpk intravenous administration
# Assay type: ADME, organism-based
# EXPERIMENTAL_CONTEXT: in vivo, 5 mg/kg
METRIC_NAME: clearance (mL/min/kg)

LINE_NOTATION	DATA_VALUE
CNc1cccc(CCOc2ccc3c(ccn3CCC(=O)O)c2)n1	11.7
CNc1cccc(CCOc2ccc3c(CCC(=O)O)coc3c2)n1	65.1
CNc1cccc(CCOc2ccc3c(CCC(=O)O)csc3c2)n1	16.5

Where these numbers come from: ChEMBL document CHEMBL1142682
